Tested on: HSV2 G
Test Method Notes: Primary CPE reduction assay in HFF cells, HSV2 G
Format: cell-based, Herpes Simplex Virus 2
Measurement Parameters: HSV2 G, HFF cells
Experimental: Screening Assays for HSV-1, HSV-2, CMV, and VZV Cells. Human foreskin fibroblast (HFF) cells were prepared from human foreskin tissue. […] The media was then replaced with fresh Clinical Medium and the cell growth was monitored daily until a confluent monolayer has formed. […] Primary Cytopathic Effect (CPE) Reduction Assay. Low passage (3-10) HFF cells were trypsinized, counted, and seeded into 96 well tissue culture plates in 0.1 ml of MEM supplemented with 10% FBS. […]
For each record, write down the corresponding TI (therapeutic index derived from CC50/EC50).

Here is how some compounds turned out for TI (therapeutic index derived from CC50/EC50).
N.Nc1ccn(C[C@@H](CO)OCP(=O)(O)OCCCS(=O)(=O)CCCCCCCCCCCCC2CCC2)c(=O)n1 [Compound 121]
498
N.Nc1ccn(C[C@@H](CO)OCP(=O)(O)OCCCS(=O)(=O)CCCCCCCCCCCCCC2CCC2)c(=O)n1 [Compound 122]
>14
CC1(CCCCCCCCCCCCS(=O)(=O)CCCOP(=O)(O)CO[C@H](CO)Cn2cnc(N)cc2=O)COC1 [Compound 110]
>1250

Sample N.Nc1ccn(C[C@@H](CO)OCP(=O)(O)OCCCS(=O)(=O)CCCCCCCCCCC2CCC2)c(=O)n1 [Compound 120] — what was its TI (therapeutic index derived from CC50/EC50)?
>3950

* * *

Tested on: HSV2 G
Test Method Notes: Primary CPE reduction assay in HFF cells, HSV2 G
Type: cell-based, Herpes Simplex Virus 2
Measurement Parameters: Human alphaherpesvirus 2, HFF, read-out: EC50 (50% reduction in the Cytopathic Effect of the virus)
I'd be grateful if you could share measured pEC50 for these entries.
Answers are plain numbers, as −log10 of the molar value.

Illustrative cases are given below, each with its answer.
N.Nc1ccn(C[C@@H](CO)OCP(=O)(O)OCCCS(=O)(=O)CCCCCCCCCCCCC2CCC2)c(=O)n1 [Compound 121]
8.00
N.Nc1ccn(C[C@@H](CO)OCP(=O)(O)OCCCS(=O)(=O)CCCCCCCCCCC2CCC2)c(=O)n1 [Compound 120]
8.00

Next compound, pEC50 to be filled in.
Request - read-out pEC50 | tested on HSV2 G | compound N.Nc1ccn(C[C@@H](CO)OCP(=O)(O)OCCCS(=O)(=O)CCCCCCCCCCCCCC2CCC2)c(=O)n1 [Compound 122]
6.85

* * *

Tested on: Human Cytomegalovirus Strain AD169
Test Method Notes: Additional study versus Human Cytomegalovirus Strain AD169 in HFF cells (procedures of US 2011/0263535 A1)
Format: cell-based
Measurement Parameters: Human Cytomegalovirus Strain AD169 in HFF cells
Method: Additional studies in HFF cells were performed using the procedures as outlined in US Patent Application Publication No: 2011/0263535 A1 with compounds of 120, 121, and 122. Each of the compounds were tested versus Human Cytomegalovirus Strain AD169 in HFF cells using ganciclovir as a comparator.
Metric: Therapeutic index EC90/HFF Cytotoxicity 50%

Illustrative cases are given below, each with its answer.
N.Nc1ccn(C[C@@H](CO)OCP(=O)(O)OCCCS(=O)(=O)CCCCCCCCCCC2CCC2)c(=O)n1
>37
N.Nc1ccn(C[C@@H](CO)OCP(=O)(O)OCCCS(=O)(=O)CCCCCCCCCCCCCC2CCC2)c(=O)n1
>13
Nc1nc(O)c2ncn(COC(CO)CO)c2n1 [Ganciclovir, reference compound]
1

Here is the next item to consider.
Which Therapeutic index EC90/HFF Cytotoxicity 50% value belongs to N.Nc1ccn(C[C@@H](CO)OCP(=O)(O)OCCCS(=O)(=O)CCCCCCCCCCCCC2CCC2)c(=O)n1 ?
>15
